Biological target: Human FAAH (Homo sapiens, UniProt O00519)
Sequence (O00519 1-579): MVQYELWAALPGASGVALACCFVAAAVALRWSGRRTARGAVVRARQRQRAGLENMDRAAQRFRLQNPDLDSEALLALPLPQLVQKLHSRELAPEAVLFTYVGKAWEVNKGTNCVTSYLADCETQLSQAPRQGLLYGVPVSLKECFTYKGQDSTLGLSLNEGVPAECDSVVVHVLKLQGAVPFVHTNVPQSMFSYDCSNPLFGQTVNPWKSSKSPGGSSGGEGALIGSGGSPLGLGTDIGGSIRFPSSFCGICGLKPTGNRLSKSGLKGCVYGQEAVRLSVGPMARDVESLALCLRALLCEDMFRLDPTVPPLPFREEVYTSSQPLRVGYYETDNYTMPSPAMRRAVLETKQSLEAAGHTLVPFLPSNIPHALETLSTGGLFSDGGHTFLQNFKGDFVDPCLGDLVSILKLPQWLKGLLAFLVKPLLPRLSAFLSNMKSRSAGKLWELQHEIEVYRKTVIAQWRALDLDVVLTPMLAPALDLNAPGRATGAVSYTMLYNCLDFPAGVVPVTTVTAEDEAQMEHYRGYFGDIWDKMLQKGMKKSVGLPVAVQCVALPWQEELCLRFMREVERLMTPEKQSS
Measured Metric: IC50 (nM)
Report as a plain number; the unit nM is understood.

// sample O=C(Nc1ccncn1)N1CCCC(Cc2ccc(C(F)(F)F)cc2)C1 (stereo not drawn) , its IC50 was 8000

# compound O=C(Nc1cccnc1)N1CCCC(Cc2cccc(Oc3ccc(Cl)cc3)c2)C1 (single isomer, unassigned; (-)) [Example 14] ; its IC50 = 73

response.value for O=C(Nc1ccncn1)N1CCCC(Cc2cccc(C(F)(F)F)c2)C1 (stereo not drawn) (field: IC50) = 8000

In plain terms, O=C(Nc1cnc2cccnn12)N1CCCC(Cc2cccc(Oc3ccc(F)cc3)c2)C1 (stereo not drawn) has a documented IC50 of 56

Reported IC50 of O=C(Nc1cccnc1)N1CCCC(Cc2ccc3c(c2)OC(F)(F)O3)C1 (stereo not drawn) : 410

Kindly note the recorded IC50 for O=C(Nc1cccnc1)N1CCCC(Cc2ccc(Cl)c(Cl)c2)C1 (stereo not drawn) , which is 48

Lab book: IC50 of O=C(Nc1ccncn1)N1CCCC(Cc2ccc(F)cc2)C1 (stereo not drawn) noted as 10000

Please fill in: IC50 reported for O=C(Nc1cccnc1)N1CCCC(Cc2cccc(Oc3ccc(Cl)cc3)c2)C1 (single isomer, unassigned; (+)) [Example 13] = 19

Consider O=C(Nc1noc2ccccc12)N1CCCC(Cc2cccc(C(F)(F)F)c2)C1 (stereo not drawn) . Its measured IC50 is 645

response.value for O=C(Nc1cccnc1)N1CCCC(Cc2ccc(OC(F)(F)F)cc2)C1 (stereo not drawn) (field: IC50) = 430

# IC50 (compound: O=C(Nc1cccnc1)N1CCCC(Cc2cccc(Oc3ccc(F)cc3)c2)C1 (stereo not drawn) ) is 18

Short answer for O=C(Nc1cccnc1)N1CCCC(Cc2cccc(OC(F)(F)F)c2)C1 (stereo not drawn) : IC50 was 190
